tested on: HeLa; test: Primary qHTS to identify gynecologic anti-cancer compounds using libraries of approved drugs and bioactive compounds (AID 1345084); details: Gynecologic cancer cell panel viability, ATPlite luminescence, 48 h; series mostly up to 57.5 µM; note: nearly all actives have a fitted effect of over 55% in size
Records with an inconclusive call do not appear. Activity calls are given as the source filed them. Calls come from the whole dose curve; as a rule, active = well fitted cell-killing curve with a large enough effect; inconclusive = small, poorly fitted or top-dose-only effect, or effect the other way; inactive = flat fitted curve, though single readings scatter.
Field 'call' accepts active, inactive

{"compound": "O=C(/C=C/c1ccc(O)cc1)N[C@@H](Cc1ccc(O)cc1)C(=O)O", "qualitative_label": "inactive"}

Prompt line: Give the logged outcome of this assay for the following compound: "Nc1ccc(/C=C/C(=O)NCc2cc3cc(-c4ccc(C(=O)N5CCC(F)(F)CC5)cc4)cc(-c4ccc(F)cc4)c3o2)cn1"
Response line: active

Prompt line: Give the logged outcome of this assay for the following compound: "C/C=C/C=C/C(O)=C1\C(O)=C(C)C(=O)[C@@]2(C)OC(=O)[C@@](C)(NC(=O)/C=C/C(=O)O)[C@@H]12"
Response line: inactive

Prompt line: Give the logged outcome of this assay for the following compound: "Nc1nc(-n2cc(C(=O)O)c(=O)c3cc(F)c(N4CC(O)C4)c(Cl)c32)c(F)cc1F"
Response line: inactive

Prompt line: Give the logged outcome of this assay for the following compound: "Cc1noc(-c2ccc(-c3ccc(CC(=O)O)cc3)cc2)c1NC(=O)O[C@H](C)c1ccccc1"
Response line: inactive

Prompt line: Give the logged outcome of this assay for the following compound: "OC[C@H]1O[C@@H](OCCc2ccccc2)[C@H](O[C@@H]2OC[C@](O)(CO)[C@H]2O)[C@@H](O)[C@@H]1O"
Response line: inactive

Prompt line: Give the logged outcome of this assay for the following compound: CC1OC2OC(=O)C3(C)CC4=C(CO)C5=C(CC(=O)C4(C)C(C1=O)C23)C(C)(C)OC(=O)C5 (stereo not drawn)
Response line: inactive

Prompt line: Give the logged outcome of this assay for the following compound: COC(=O)[C@@H](O)[C@H]1[C@@]2(C)CC3(O)[C@@H](C(=O)[C@H]2O)[C@]24O[C@]25CC(=O)O[C@@H](c2ccoc2)[C@]5(C)CCC4[C@]13C (stereo partly drawn)
Response line: inactive

* * *

tested on: Tov112D; assay: Primary qHTS to identify gynecologic anti-cancer compounds using libraries of approved drugs and bioactive compounds (AID 1345084); conditions: Gynecologic cancer cell panel viability, ATPlite luminescence, 48 h; series mostly up to 57.5 µM; note: nearly all actives have a fitted effect of over 55% in size
Results filed as inconclusive are left out. Activity calls are given as the source filed them. Calls follow the shape of the dose curve; as a rule, active = well fitted cell-killing curve with a large enough effect; inconclusive = small, poorly fitted or top-dose-only effect, or effect the other way; inactive = flat fitted curve, though single readings scatter.
Field 'call' accepts active, inactive

Prompt line: Give the logged outcome of this assay for the following molecule: "CC(=O)c1cc2c(cc1O)OC(C)(C)C=C2"
Response line: inactive

Prompt line: Give the logged outcome of this assay for the following molecule: "Cc1nc2ccc(Oc3ccc(F)cc3)cc2c(=O)n1C[C@H]1CCCN(C(C)C)C1"
Response line: inactive

Prompt line: Give the logged outcome of this assay for the following molecule: COC(=O)CC(C)(O)CC(=O)OCc1ccc(O[C@@H]2O[C@H](CO)[C@@H](O)[C@H](O)[C@H]2O)cc1 (some centres undefined)
Response line: inactive

Prompt line: Give the logged outcome of this assay for the following molecule: "COC(=O)c1ccccc1O[C@@H]1O[C@H](CO)[C@@H](O)[C@H](O)[C@H]1O[C@@H]1O[C@@H](C)[C@H](O)[C@@H](O)[C@H]1O"
Response line: inactive

* * *

Please go through the items and note down their max response.
Test system: CRL-7250
Test: Cytotoxic Profiling of Annotated Libraries Using Quantitative High-Throughput Screening (AID 1296008); note: % is set by controls: 0 for no effect and ±100 for the full control effect; nearly all actives have a fitted effect of over 60% in size
Settings: Five cell lines viability, CellTiter-Glo ATP luminescence, 48-72 h; stronger effect = lower value
Description: Cell-based phenotypic screening is a commonly used approach to discover biological pathways, novel drug targets, chemical probes and high-quality hit-to-lead molecules. […] A pintool (Kalypsys) was used to transfer 23 nL of compound solution to the 1536-well assay plates. […] Plates were left at room temperature for 10 min before imaging the ATP-coupled luminescence using a ViewLux microplate imager (PerkinElmer, Waltham, MA).
Results filed as inconclusive are left out. The source made the active and inactive calls. Calls come from the whole dose curve; as a rule, active = well fitted inhibition curve with a large enough effect; inconclusive = small, poorly fitted or top-dose-only effect; inactive = flat fitted curve, though single readings scatter.

Sample answers from the record:
{"compound": "C[C@@H](O)[C@H](NC(=O)c1ccc(C#Cc2ccc(CN3CCOCC3)cc2)cc1)C(=O)NO", "max response": "-14.3% (inactive)"}
{"compound": "CC(O)/C=C/C1OC(=O)CC1Nc1ccc(C(=O)O)cc1 (centres undefined)", "max response": "-10.3% (inactive)"}
{"compound": "C[C@@H]1C[C@@H]([C@@H](O)C(C)(C)O)O[C@H]2C[C@@]3(C)C(=C12)C[C@H](O)[C@H]1[C@@]2(C)CCC(=O)C(C)(C)C2CC[C@@]13C (some centres undefined)", "max response": "0.566% (inactive)"}

Lab book: max response of CC(=O)OC/C=C(\C)C(CC1C(C)=C(OC(C)=O)C(=O)C2C(C)(C)C(O)CCC12C)OC(C)=O (centres undefined) noted as 1.57% (inactive)

Data origin: PubChem BioAssay (NCATS)
